These measurements were taken from the RNAGym collection of RNA variant scans (doi:10.1093/nar/gkz1192).

B1: CPEB3 Ribozyme (parent)
chain: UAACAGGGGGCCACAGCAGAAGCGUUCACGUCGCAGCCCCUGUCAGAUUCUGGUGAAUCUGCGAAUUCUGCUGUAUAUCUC

# Variants of: B1
# method-summary: self-cleavage, relative activity (ratio to wild type); higher = more cleavage; in vitro, sequencing
assay-readout: self-cleavage
Lab note: jot down the number only; don't add units.

# annotated cases, reported self-cleavage shown
UAACAGGGGGCCGCAGCAGAAGCGUUCACGUCGCAGCCCCUGUCAGAUUUUGGUGAAUCUGCGAAUUCUGCUGUAUAUCUC [A13G C50U] | 0.91
UAACAGGGGGCCCCAGCAGAAGCGUUCACGUCGCAGCCCCUGUCUGAUUCUGGUGAAUCUGCGAAUUCUGCUGUAUAUCUC [A13C A45U] | 0.44
UAACAGGGGGCCACAGCAGAAGCGUUCACGUCGCAGCCCCUGCCAGAUUCUGGUGAAUCUGCGAAUUCUCCUGUAUAUCUC [U43C G70C] | 0.1
UAACAGUGGGCCACAGCAGAAGCGUACACGUCGCAGCCCCUGUCAGAUUCUGGUGAAUCUGCGAAUUCUGCUGUAUAUCUC [G7U U26A] | 0.21

Qu. // query self-cleavage value for entry UAACAGGGGACCACAGCAGAAGCGUUCACGUCGCAGCCCCUGUCAGAUUCUGGUGAAUCGGCGAAUUCUGCUGUAUAUCUC [G10A U60G]
Ans. 0.06

Qu. // query self-cleavage value for entry UAACAGGGGGCCACAGCAGAAGCGUUCACGUCGCAGCCCCUGUCAGAUUCUGGUGAAUCUGCUAAUUCUGCUGUACAUCUC [G63U U76C]
Ans. 1.12

Qu. // query self-cleavage value for entry UAACAGGGGGCCGCAGCAGAAGCGUUCACGUCGCAGCCCCUGUCAGAUUCUGGUGAAUUUGCGAAUUCUGCUGUAUAUCUC [A13G C59U]
Ans. 0.8

Qu. // query self-cleavage value for entry UAACCGGGGGCCACAGAAGAAGCGUUCACGUCGCAGCCCCUGUCAGAUUCUGGUGAAUCUGCGAAUUCUGCUGUAUAUCUC [A5C C17A]
Ans. 0.19

Qu. // query self-cleavage value for entry UUACAGGGGGCCACAGCAGAAGCGUUCACGUCGCAGCCCCUGUCAGAUUCUGGUGAAUCUGCGAAUUCAGCUGUAUAUCUC [A2U U69A]
Ans. 0.52
